system: gastric lesions; type: in vivo, male Wistar rats; conditions: 100 mg/Kg orally, 4 consecutive days
ENDPOINT: % incidence/10 (head is drawing 38)
Answer with a number only.

Check out these entries, answers already filled in.
Cc1ccc(C(=O)c2ccc(CC(=O)N3CCN(C)CC3)n2C)cc1 [Compound 3-b]; 7
Cc1ccc(C(=O)c2ccc(CC(=O)NCC(=O)O)n2C)cc1 [Compound 1-c]; 8
Cc1ccc(C(=O)c2ccc(CC(=O)N3CCOCC3)n2C)cc1 [Compound 3-a]; 8
COc1ccccc1OC(=O)CNC(=O)Cc1ccc(C(=O)c2ccc(C)cc2)n1C [Compound 1-d]; 9

I have this compound here, CCOC(=O)c1ccc(NC(=O)Cc2ccc(C(=O)c3ccc(C)cc3)n2C)cc1 [Compound 1-h] , and I need its recorded % incidence/10 (head is drawing 38).
8
